The measurements presented in this section are drawn from PubChem BioAssay (NCI).

Please respond with reported TGI for every item in the list.
- Tested on: 786-0 renal
- protocol-text: NCI tumour cell line growth inhibition, 48 h
One number for each entry, in µM.

>  <compound>
CCCCCCCCN=C(N)c1ccc(N2CCN(c3ccc(C(N)=NCCCCCCCC)cc3)CC2)cc1

>  <experimental-system>
786-0 renal

>  <unit-abbreviation>
µM

>  <experimental-value>
5.49

$$$$

We now examine a further compound.
**Query** Notebook entry, 786-0 renal assay: TGI of CCCCCCCCCCCCCCCCN1CC2CCCCC2C1 (stereo not given) = ?
**Result** 14

---

Please respond with reported GI50 for every item in the list.
- System: IGROV1 ovarian
- protocol-text: NCI tumour cell line growth inhibition, 48 h

Example entries begin here.
>  <molecule>
COc1ccc(/C(=C2/O[C@@H]([C@H]3COC(C)(C)O3)[C@H]3OC(C)(C)O[C@@H]23)c2cc(OC)c(OC)c(OC)c2)cc1O

>  <experimental-system>
IGROV1 ovarian

>  <GI50>
45.1 µM

$$$$
>  <molecule>
O=C1/C(=C\c2c[nH]c3ccccc23)c2ccccc2N1c1c(Cl)cccc1Cl

>  <experimental-system>
IGROV1 ovarian

>  <GI50>
1.19 µM

$$$$
>  <molecule>
COc1ccc(/C=C2\CCCC3=C2N=C2SC(C)=NN2C3c2ccc(OC)c(OC)c2)cc1OC (centres undefined)

>  <experimental-system>
IGROV1 ovarian

>  <GI50>
18.4 µM

$$$$

**Query** Notebook entry, IGROV1 ovarian assay: GI50 of COc1ccc(-c2n/c(=C\c3c(O)[nH]c4ccc(OC)cc34)cc3c2=Nc2ccccc2-3)cc1 = ?
**Result** 12 µM

---

- Test system: KM12 colon
- protocol-text: NCI tumour cell line growth inhibition, 48 h
Please respond with reported TGI for every item in the list.

>  <compound>
COc1cc(C2CC(c3ccc4c(c3)OCO4)=NN2C=O)cc(OC)c1OC (stereo unspecified)

>  <TGI>
> 100 µM

$$$$
>  <compound>
O=Nc1c(O)cc(Nc2ccc(Br)cc2)c2ccccc12

>  <TGI>
23.1 µM

$$$$
>  <compound>
CCc1nccc2c1nc(-c1nonc1N)n2CC

>  <TGI>
> 25 µM

$$$$
>  <compound>
Nn1c(NNC(=O)C(=O)Nc2cc(Cl)c(Cl)cc2Cl)n[nH]c1=S

>  <TGI>
> 100 µM

$$$$
>  <compound>
O=C(/C=C/c1ccccc1)CCN1CCN(CCC(=O)/C=C/c2ccccc2)CC1

>  <TGI>
17 µM

$$$$

Each compound below has a reported value. Please supply its TGI.
1. COc1cc(Cn2c3ccccc3c3cc(C)c4c(c32)C=CC(C)(CCC=C(C)C)O4)cc2c1[nH]c1ccccc12 (stereo unspecified)
2. CC(=O)NC(CS/N=N/c1nc[nH]c1C(N)=O)C(=O)O (stereo unspecified)
3. CCOC(=O)c1ccc(N=C2C(=S)N(c3ccc(C(=O)OCC)cc3)C(=N)N2/N=C/c2ccccc2)cc1
4. COc1ccc(OC)c(/C=C2\SC(=S)NC2=O)c1

**Result**
1. > 100 µM
2. > 45.3 µM
3. 31.2 µM
4. > 100 µM

Each compound below has a reported value. Please supply its TGI.
1. COc1cc(/C=C/c2cc(O)c3cc(C(C)=O)c(=O)oc3c2)cc2c1O[C@]1(C)CC[C@@H](O)C(C)(C)[C@H]1C2
2. COc1ccc2c(c1)/C(=C\c1c(C)nc3sccn13)C(=O)N2
3. C=CCOc1cccc(/C=C2\SC(=Nc3ccc(O)cc3)NC2=O)c1
4. CCOC(=O)c1nc2ccc(Cl)cc2c2c1Cc1ccccc1-2

**Result**
1. > 39.3 µM
2. 25.5 µM
3. 8.86 µM
4. > 100 µM

---

- Tested on: DU-145 prostate
- protocol-text: NCI tumour cell line growth inhibition, 48 h
Please respond with reported TGI for every item in the list.

Example entries begin here.
>  <molecule>
O=c1cc(-c2ccccc2)[nH]c2ccccc12

>  <experimental-value>
> 71.4 µM

$$$$
>  <molecule>
COc1ccc(OCc2nc3cc(C(F)(F)F)ccc3nc2-c2ccccc2)cc1

>  <experimental-value>
> 100 µM

$$$$
>  <molecule>
COc1cc(C=C2C(C)=NN(c3cccc(Cl)c3)C23SCC(=O)N3c2nc3ccccc3s2)ccc1O (stereo not given)

>  <experimental-value>
> 100 µM

$$$$
>  <molecule>
CN(C)CC(=O)Nc1ccc(Cn2nnc3c2C(=O)c2nnn(Cc4ccc(NC(=O)CN(C)C)cc4)c2C3=O)cc1

>  <experimental-value>
0.337 µM

$$$$
>  <molecule>
O=S(=O)(O)c1ccc2cccc(N=Nc3c(O)ccc4ccccc34)c2c1

>  <experimental-value>
> 100 µM

$$$$
>  <molecule>
COc1ccc(/C(=C2/O[C@@H]([C@H]3COC(C)(C)O3)[C@H]3OC(C)(C)O[C@@H]23)c2cc(OC)c(OC)c(OC)c2)cc1O

>  <experimental-value>
> 100 µM

$$$$

Each molecule below has a reported value. Please supply its TGI.
1. CC(=O)N1C(Nc2ccccn2)CCN1c1ccccc1 (stereo not given)
2. O=CC(=C(I)I)c1ccccc1
3. COc1ccc(/C=C2\CCCC3=C2N=C2SC(C)=NN2C3c2ccc(OC)c(OC)c2)cc1OC (stereo not given)
4. COc1ccc(/C=C2\NC(=S)N(CN3CCCCC3)C2=O)cc1

**Result**
> 10 µM
19.5 µM
> 100 µM
> 100 µM

---

- System: A549 NSCLC
- protocol-text: NCI tumour cell line growth inhibition, 48 h
measurement-kind: TGI

Example entries begin here.
>  <compound>
CC1OC(O[C@@H]2OC=C(C=O)[C@@]3(O)CC[C@H](C)[C@@H]23)C(O)C(O)C1O (stereo not given in full)

>  <experimental-system>
A549 NSCLC

>  <TGI>
> 100 µM

$$$$
>  <compound>
CCN(CC)CCC(=O)c1ccc(Oc2ccc(Cl)cc2)cc1

>  <experimental-system>
A549 NSCLC

>  <TGI>
> 100 µM

$$$$

Each compound below has a reported value. Please supply its TGI.
1. COc1ccc(/C(=C2/O[C@@H]([C@H]3COC(C)(C)O3)[C@H]3OC(C)(C)O[C@@H]23)c2cc(OC)c(OC)c(OC)c2)cc1O
2. C=CCOc1ccc(/C(N=Nc2ccc([N+](=O)[O-])cc2)=N/NC(=O)c2ccccc2)cc1OC
3. C/C(=N/NC(=S)Nc1ccc([N+](=O)[O-])cc1)c1cccc(/C(C)=N\NC(=S)Nc2ccc([N+](=O)[O-])cc2)n1

**Result**
["> 100 µM", "> 100 µM", "11.4 µM"]

---

Reported GI50 values, MDA-MB-435.

>  <molecule>
CN1CCC(n2cnc(-c3ccc(F)cc3)c2-c2ccnc(NCCO)n2)CC1

>  <GI50>
11500 nM

$$$$

Each molecule below has a reported value. Please supply its GI50.
1. CN(C)CCNc1c2c(c(NCCN(C)C)c3[nH]ccc13)C(=O)c1ccccc1C2=O
2. COc1cc(C2CC(c3ccc4c(c3)OCO4)=NN2C=O)cc(OC)c1OC (stereo unspecified)
3. Cn1cccc1-c1cc(-c2cccs2)nc(N)c1C#N
4. CCc1nccc2c1nc(-c1nonc1N)n2CC
5. N#Cc1cccc(CSc2ncnc3nc[nH]c23)c1
6. COc1ccc(OC)c(/C=C2\SC(=S)NC2=O)c1
7. CCN(CC)CC(C)Nc1ccc([N+](=O)[O-])c2sc3ccccc3c(=O)c12 (stereo unspecified)

**Result**
["1540 nM", "260 nM", "> 100000 nM", "> 25000 nM", "89800 nM", "39000 nM", "2150 nM"]

Each molecule below has a reported value. Please supply its GI50.
1. Nc1ccccc1C#C/C=C\C#Cc1cccs1
2. C=CCOc1cccc(/C=C2\SC(=Nc3ccc(O)cc3)NC2=O)c1
3. COc1cc(/C=C/c2cc(O)c3cc(C(C)=O)c(=O)oc3c2)cc2c1O[C@]1(C)CC[C@@H](O)C(C)(C)[C@H]1C2

**Result**
2810 nM
155 nM
> 20100 nM

---

- Test system: NCI-H226 lung
- protocol-text: NCI tumour cell line growth inhibition, 48 h; in the data active = GI50 below about 0.43 µM; inactive = the rest
Please answer using one outcome listed in active, inactive

>  <molecule>
Oc1cccc2ccc(N/N=C/c3cc(CN4CCCCC4)c(O)c4ncccc34)nc12

>  <class-assignment>
active

$$$$
>  <molecule>
CCCCCCCCN=C(N)c1ccc(N2CCN(c3ccc(C(N)=NCCCCCCCC)cc3)CC2)cc1

>  <class-assignment>
inactive

$$$$
>  <molecule>
C1C[OH+]CC[OH+]CCNCC[OH+]CC[OH+]CCN1.N.[Cl-].[Pt+4]

>  <class-assignment>
inactive

$$$$

**Query** Answer briefly: the call reported for COc1ccc(-c2nc3sc4c(c3c(=O)[nH]2)CCCCCC4)cc1 in this assay.
**Result** inactive

**Query** // same read-out, input: CCCC(C)c1cc(Cc2cc(Cl)cc(Cl)c2O)c(O)c(Cc2cc(Cl)cc(Cl)c2O)c1 (centres undefined)
**Result** inactive

**Query** // same read-out, input: Cn1cc(-c2ccc3occ(-c4cccc(-c5ccncc5)c4)c3n2)cn1
**Result** inactive

**Query** // same read-out, input: COc1ccc2nc(-c3ccc(-c4noc(-c5cc(OC)c(OC)c(OC)c5)n4)cc3)[nH]c2c1
**Result** inactive

**Query** // same read-out, input: CN(C)CC(=O)Nc1ccc(Cn2nnc3c2C(=O)c2nnn(Cc4ccc(NC(=O)CN(C)C)cc4)c2C3=O)cc1
**Result** active

**Query** // same read-out, input: O=C(NCCO)Nc1ccc(-c2nc(N3CCOCC3)c3cccn3n2)cc1
**Result** active
